# testSystem: Inhibitor of nuclear factor kappa-B kinase subunit beta (Homo sapiens, UniProt O14920)
# Sequence (O14920 whole entry): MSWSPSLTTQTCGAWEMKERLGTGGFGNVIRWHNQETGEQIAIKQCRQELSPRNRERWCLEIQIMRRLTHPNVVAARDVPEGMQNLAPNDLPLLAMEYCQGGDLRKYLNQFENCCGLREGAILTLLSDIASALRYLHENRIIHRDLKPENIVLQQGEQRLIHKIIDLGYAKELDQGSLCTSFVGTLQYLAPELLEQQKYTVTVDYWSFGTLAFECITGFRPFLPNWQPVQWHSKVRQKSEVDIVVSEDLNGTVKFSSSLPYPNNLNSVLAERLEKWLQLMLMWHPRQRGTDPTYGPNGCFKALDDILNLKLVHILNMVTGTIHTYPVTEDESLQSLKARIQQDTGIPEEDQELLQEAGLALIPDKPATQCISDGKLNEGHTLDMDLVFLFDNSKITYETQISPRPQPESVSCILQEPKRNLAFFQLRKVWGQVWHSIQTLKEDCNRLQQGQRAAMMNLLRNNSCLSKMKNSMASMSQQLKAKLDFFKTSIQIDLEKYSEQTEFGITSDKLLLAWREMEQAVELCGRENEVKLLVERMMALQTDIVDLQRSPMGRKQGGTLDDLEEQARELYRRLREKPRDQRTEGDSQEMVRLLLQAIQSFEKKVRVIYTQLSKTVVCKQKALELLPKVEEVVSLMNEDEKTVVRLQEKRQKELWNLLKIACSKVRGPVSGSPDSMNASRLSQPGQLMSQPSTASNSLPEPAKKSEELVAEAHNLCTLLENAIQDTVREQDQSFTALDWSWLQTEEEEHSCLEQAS
# assay: Inhibition of IKKbeta using 5FAM-GRHDSGLDSMK-NH2 as substrate incubated for 10 mins prior to substrate addition by IMAP-TR-FRET assay
Exercise: state measured pIC50 for each of the compounds provided.
Remember the convention: pIC50 equals -log10 of concentration in molar.

(Q) I would be grateful if you could share the reported pIC50 for CN1CCN(CCCOc2ccc(N3C(=O)/C(=C/c4ccc(Oc5cccc(C(N)=O)c5)cc4)SC3=S)cc2)CC1 .
(A) 5.82

(Q) Which pIC50 value is on record for NC(=O)c1cccc(Oc2ccc(/C=C3\SC(=S)N(c4ccc(OCCCN5CCCCC5)cc4)C3=O)cc2)c1 ?
(A) 5.20

(Q) What value of pIC50 has been recorded for this entry: CN1CCN(CCCCOc2ccc(N3C(=O)/C(=C/c4ccc(Oc5ccc(C(N)=O)cc5)cc4)SC3=S)cc2)CC1
(A) 6.64

(Q) Give its pIC50 value. Item: CCN(CC)CCCOc1ccc(N2C(=O)/C(=C/c3ccc(Cl)c(Cl)c3)SC2=S)cc1
(A) 5.03

(Q) If you can, please state the reported pIC50 value of CCN(CC)CCOc1ccc(N2C(=O)/C(=C/c3ccc(Oc4ccc(C(N)=O)cc4)cc3)SC2=S)cc1 .
(A) 5.06

(Q) Value lookup for pIC50; key = CCN(CC)CCCOc1ccc(N2C(=O)/C(=C/C=C(c3ccccc3)c3ccccc3)SC2=S)cc1
(A) 4.85

(Q) # query: pIC50 of entry CN1CCN(CCCCCOc2ccc(N3C(=O)/C(=C/c4ccc(Oc5ccc(C(N)=O)cc5)cc4)SC3=S)cc2)CC1
(A) 6.80

(Q) Using the record for CCN(CC)CCCOc1ccc(N2C(=O)/C(=C/c3ccc(Oc4ccc(Cl)cc4)cc3)SC2=S)cc1 , report its pIC50.
(A) 4.81

(Q) Please give the measured pIC50 for this compound: NC(=O)c1cccc(Oc2ccc(/C=C3\SC(=S)N(c4ccc(OCCCN5CCCC5)cc4)C3=O)cc2)c1
(A) 5.20

(Q) Endpoint output: pIC50 of CN1CCN(CCCOc2ccc(N3C(=O)/C(=C/c4ccc(Oc5ccc(C(N)=O)cc5)cc4)SC3=S)cc2)CC1 . Value?
(A) 6.46

(Q) Entry CCN(CC)CCCOc1ccc(N2C(=O)/C(=C/c3ccc(Oc4ccc(C(N)=O)cc4)cc3)SC2=S)cc1 has what pIC50?
(A) 5.59

(Q) If you can, please state the reported pIC50 value of CCN(CC)CCCOc1ccc(N2C(=O)/C(=C/c3ccc(-c4cccc(C(N)=O)c4)o3)SC2=S)cc1 .
(A) 5.24

(Q) Quick one: pIC50 of N#Cc1c(C2CCCNC2)cc(-c2ccccc2O)nc1N (centres undefined) ?
(A) 6.77

(Q) What pIC50 value was documented for this compound, CCN(CC)CCCOc1ccc(N2C(=O)/C(=C/c3ccc(Oc4cccc(C(N)=O)c4)cc3)SC2=S)cc1 ?
(A) 5.14

(Q) Which pIC50 is reported for this compound? CCN(CC)CCCOc1ccc(N2C(=O)/C(=C/c3ccc(O)cc3)SC2=S)cc1
(A) 4.63

(Q) Entry under review: CN1CCN(CCCOc2ccc(N3C(=O)/C(=C/c4ccc(Oc5ccccc5C(N)=O)cc4)SC3=S)cc2)CC1 . Reported pIC50?
(A) 5.07

(Q) Given the entry NC(=O)c1ccc(Oc2ccc(/C=C3\SC(=S)N(c4ccc(OCCCN5CCCC5)cc4)C3=O)cc2)cc1 , report its measured pIC50.
(A) 5.82

(Q) What does the data say about its pIC50? Entry: CCN(CC)CCCOc1ccc(N2C(=O)/C(=C/c3ccc(-c4ccc(C(N)=O)cc4)o3)SC2=S)cc1
(A) 5.48

(Q) What pIC50 value was documented for this compound, NC(=O)c1ccc(Oc2ccc(/C=C3\SC(=S)N(c4ccc(OCCCN5CCCCC5)cc4)C3=O)cc2)cc1 ?
(A) 5.38
